Reference for the values: PubChem BioAssay (NCI)

- System: HOP-62 NSCLC
- test: NCI tumour cell line growth inhibition, 48 h
reported.property: TGI

COc1ccc(/C=C(\C(=O)NCc2cccnc2)S(=O)(=O)c2ccccc2)cc1OC : 11.4 µM
CC(C)CCNCC(O)Cn1c2ccccc2c2ccccc21 (stereo not drawn) : 29.7 µM
COc1cnc2c(c1)C(=O)c1c-2n(CCCNC2=NCCS2)c(=O)c2cc(Cl)ccc12 : 1.51 µM
c1ccc(CSC2(SCc3ccccc3)CCCCC2)cc1 : > 10 µM
COc1cc2c(cc1OC)[C@@H](Nc1ccc(F)cc1)C1COC(=O)[C@@H]1C2c1cc(OC)c(O)c(OC)c1 (stereo partly drawn) : 2.49 µM
CCSc1nc(SCC)c2c(-c3ccc(OC)c(OC)c3)c(C#N)c(SCC)nc2n1 : 63.2 µM
COC(=N)c1c(N)[n+]([O-])c2ccc(F)cc2[n+]1[O-] : > 100 µM
Cn1c(N)nc(-c2ccc(Cl)cc2)c1SSc1c(-c2ccc(Cl)cc2)nc(N)n1C : 7.69 µM

Lab note: measured TGI of CC[C@H](CO)Nc1nc(NCc2ccccc2)c2ncn(C(C)C)c2n1 was > 94 µM

O=C1NOC(c2ccc(O)cc2)(c2ccc(O)cc2)c2ccccc21 yielded TGI of > 100 µM

// CCOC(=O)c1c(NC(=S)Nc2ccccc2)sc2c1CCOC2 : TGI value = > 100 µM

BrCC[N+]12CC[N+](CCBr)(CC1)C2 yielded TGI of > 100 µM

Record COc1ccc(/C=C2\C[C@H]3[C@@H]4CCC5=CC(=O)CC[C@]5(C)[C@H]4CC[C@]3(C)C2=O)cc1OC , field TGI: > 100 µM

# TGI of COC1=C(C)C(=O)c2c(cc3c(c2O)C(C)(CCC=C(C)C)C(C)O3)C1=O (stereo not drawn) = 34.1 µM

Memo: O=C(O)C1CCCCN1c1ccccc1[N+](=O)[O-] (stereo not drawn) , reported TGI: > 100 µM

The molecule NCCN.O=C([O-])CN1CCOCC1.[OH-].[Pt+4] showed TGI equal to > 100 µM

Just so you know, measured TGI for Cc1ccc2c(=O)c3ccccc3sc2c1 came out at > 100 µM

So, O=C(Nc1ccc(Oc2cccc(F)c2)c(Cl)c1)c1cnccn1 ? Its TGI was > 50 µM

The molecule listed as O=S(=O)(/C=C/CS(=O)(=O)c1ccccc1)c1ccccc1 has a reported TGI of 46.2 µM

Entry under test: OCCn1cnc2c(SCc3ccccc3)ncnc21 . Its TGI was > 100 µM

# TGI of CCN1C(=O)N(CC)C2C1NN=c1s/c(=C\c3ccccn3)c(=O)n12 (stereo not drawn) = > 100 µM

Summary for this molecule, CCOC(=O)/C=C(/C)Nc1nc2c(c(C(=O)OC)c1C#N)CCCC2 : TGI is > 100 µM

Record COc1ccc(C2=CC(c3ccc(OC)cc3Br)N3C=CSC3=N2)cc1 (stereo not drawn) , field TGI: 24.8 µM

---

Listed here are compounds together with their documented GI50.
- System: CCRF-CEM leukemia
- test: NCI tumour cell line growth inhibition, 48 h

COc1ccc(C(=O)/C=C/c2cccc(Nc3ccnc4cc(Cl)ccc34)c2)cc1 : 2880 nM
COc1ccc(C2=CC(c3ccc(OC)cc3Br)N3C=CSC3=N2)cc1 (stereo not given) : 2690 nM
Nc1c(C(=O)c2cccc(-c3cccnc3)c2)cnn1-c1ccc(F)cc1F : 10200 nM

Query COc1cc(OC)c(C(=O)/C=C/c2cccc(C#N)c2)c(OC)c1 yields GI50 of 1030 nM

GI50 in this record for COC(=O)C1=C(C)NC(C)=C(C(=O)OCC(C)C)C1c1ccccc1[N+](=O)[O-] (stereo not given) : 2450 nM
